Recorded IC50 values for a group of molecules are listed next.
Biological target: human MRGPR X4 (Homo sapiens, UniProt Q96LA9)
Construct: expressed in transfected cells
Sequence (Q96LA9 whole entry): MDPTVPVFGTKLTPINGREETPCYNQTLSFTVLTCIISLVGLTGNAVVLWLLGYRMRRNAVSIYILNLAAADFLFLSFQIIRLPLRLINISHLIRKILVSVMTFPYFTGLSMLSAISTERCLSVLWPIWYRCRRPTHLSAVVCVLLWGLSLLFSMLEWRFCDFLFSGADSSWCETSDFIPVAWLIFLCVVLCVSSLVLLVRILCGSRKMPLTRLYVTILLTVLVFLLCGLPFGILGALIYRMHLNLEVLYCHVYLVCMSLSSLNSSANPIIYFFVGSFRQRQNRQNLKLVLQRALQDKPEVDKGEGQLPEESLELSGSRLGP
Experiment: MRGPR X4 antagonist activity, IP-One Gq HTRF assay in stably transfected HEK cells
Type: cell-based
Test Readout: IC50

[[record]]
molecule = "Cc1ccc(Cn2nc(C(=O)NCCc3nc(C)c(C)s3)c3ccccc32)cc1 [Compound 53]"
test_readout = "IC50"
recorded_result = "100 to 500 nM"

[[record]]
molecule = "CS(=O)(=O)c1ccccc1CNC(=O)c1nn(Cc2ccc(Cl)cc2)c2ccccc12 [Compound 379]"
test_readout = "IC50"
recorded_result = "> 2500 nM"

[[record]]
molecule = "Cc1ccc(Cn2nc(C(=O)O)c3cc(Cl)ccc32)cc1 [Compound 330]"
test_readout = "IC50"
recorded_result = "> 2500 nM"

[[record]]
molecule = "O=C(NCCc1nnc2ccccn12)c1nn(Cc2ccc(Cl)cc2)c2ccccc12 [Compound 10]"
test_readout = "IC50"
recorded_result = "< 100 nM"

[[record]]
molecule = "O=C(NCCc1nnc2ccccn12)c1nn(Cc2cnc3ccccc3c2)c2ccccc12 [Compound 455]"
test_readout = "IC50"
recorded_result = "100 to 500 nM"

[[record]]
molecule = "O=C(NCCn1cncn1)c1nn(Cc2ccc(Cl)cc2)c2ccccc12 [Compound 398]"
test_readout = "IC50"
recorded_result = "> 2500 nM"

[[record]]
molecule = "O=C(NCCc1ccc(Cl)c(F)c1)c1cn(CCN2CCC(F)(F)CC2)c2ccccc12 [Compound 223]"
test_readout = "IC50"
recorded_result = "1000 to 2500 nM"

[[record]]
molecule = "Cc1ccc(Cn2nc(C(=O)NCCc3cc4ccccc4s3)c3ccccc32)cc1 [Compound 84]"
test_readout = "IC50"
recorded_result = "501 to 1000 nM"

[[record]]
molecule = "COc1cccc(Cn2cc(C(=O)NCCc3cccnc3)c3ccccc32)c1 [Compound 211]"
test_readout = "IC50"
recorded_result = "1000 to 2500 nM"


====

Molecular target: human MRGPR X4 (Homo sapiens)
Construct: expressed in transfected cells
Test: MRGPR X4 antagonist activity, IP-One Gq HTRF assay in stably transfected HEK cells
Assay type: cell-based
pIC50: −log10 of the molar value.
Test Readout: pIC50

[[record]]
compound = "O=C(NCCc1ccc(Cl)c(F)c1)c1cn(Cc2ccccc2F)c2ccccc12 [Compound 224]"
test_readout = "pIC50"
recorded_result = "< 5.60"

[[record]]
compound = "O=C(NCCc1cccnc1)c1nn(Cc2ccc(Cl)cc2)c2ccccc12 [Compound 19]"
test_readout = "pIC50"
recorded_result = "> 7.00"

[[record]]
compound = "O=C(NCCn1cccc1)c1nn(Cc2ccc(Cl)cc2)c2ccccc12 [Compound 349]"
test_readout = "pIC50"
recorded_result = "6.00 to 6.30"

[[record]]
compound = "O=C(NCCc1nc2c(s1)CCCC2)c1nn(Cc2ccc(Cl)cc2)c2ccccc12 [Compound 29]"
test_readout = "pIC50"
recorded_result = "6.30 to 7.00"

[[record]]
compound = "Cc1cc(Cl)ccc1Cn1nc(C(=O)NCCc2nc3c(s2)CCCC3)c2ccccc21 [Compound 98]"
test_readout = "pIC50"
recorded_result = "5.60 to 6.00"

[[record]]
compound = "O=C(NCCc1c[nH]c2ccccc12)c1nn(Cc2ccc(OC(F)F)cc2)c2ccccc12 [Compound 71]"
test_readout = "pIC50"
recorded_result = "6.00 to 6.30"

[[record]]
compound = "O=C(NCc1ccnc2[nH]ccc12)c1nn(Cc2ccc(Cl)cc2)c2ccccc12 [Compound 386]"
test_readout = "pIC50"
recorded_result = "< 5.60"

[[record]]
compound = "O=C(NCCc1nnc2ccccn12)c1nn(Cn2nnc3ccccc32)c2ccccc12 [Compound 465]"
test_readout = "pIC50"
recorded_result = "6.30 to 7.00"

